Each recorded value in this set is attributed to ChEMBL document CHEMBL1144696.

# Test system: Plasmodium falciparum
# assay protocol: Selectivity index for chloroquine-resistant Plasmodium falciparum FCB to chloroquine-sensitive Plasmodium falciparum GCO3 by SYBR green IC50 ratio
# Assay type: functional
Classify: true (1) when Ratio IC50 is strictly less than 2; false (0) when Ratio IC50 is not.

compound=CCN(CC)CCCNCCCNc1ccnc2cc(Cl)ccc12 assay_target="Plasmodium falciparum" class_name="true (1)"
compound=CCN(CC)CCCN(CCCN(CC)CC)c1ccnc2cc(Cl)ccc12 assay_target="Plasmodium falciparum" class_name="true (1)"
compound="CCN(CC)C1CCC(Nc2ccnc3cc(Cl)ccc23)CC1 (centres undefined)" assay_target="Plasmodium falciparum" class_name="true (1)"
compound=CC(C)N(CCCN(CCCN(C(C)C)C(C)C)c1ccnc2cc(Cl)ccc12)C(C)C assay_target="Plasmodium falciparum" class_name="false (0)"
compound="CCN(CC)C1CCCC(Nc2ccnc3cc(Cl)ccc23)C1 (centres undefined)" assay_target="Plasmodium falciparum" class_name="false (0)"
compound=CCN(CC)CCCN(CC)CCCNc1ccnc2cc(Cl)ccc12 assay_target="Plasmodium falciparum" class_name="true (1)"
compound=CC(C)N(CCCCN(CCCCN(C(C)C)C(C)C)c1ccnc2cc(Cl)ccc12)C(C)C assay_target="Plasmodium falciparum" class_name="true (1)"

Next item in the queue.
## Task Decide: Ratio IC50 of CC(C)NC1CCCC(Nc2ccnc3cc(Cl)ccc23)C1 (centres undefined) strictly below 2?
## Result false (0)

====

# Tested on: Plasmodium falciparum
# assay protocol: Antiplasmodial activity against chloroquine-resistant Plasmodium falciparum Dd2 after 72 hrs by SYBR green 1 assay
# Type: functional, organism-based
# stated conditions: Dd2, 72 h
# reported pIC50; entries follow
Notebook: values listed as pIC50 are -log10 of the concentration (mol/L).

Take a look at these entries with their results.
record_smiles=CCN(CC)CCCNCCCCCNc1ccnc2cc(Cl)ccc12 measured_number=6.99
record_smiles=CCN(CC)CCCNCCCCCCNc1ccnc2cc(Cl)ccc12 measured_number=6.57
record_smiles=CC(C)N(CCCN(CCCN(C(C)C)C(C)C)c1ccnc2cc(Cl)ccc12)C(C)C measured_number=7.00
record_smiles=CCN(CC)CCCNCCCCNc1ccnc2cc(Cl)ccc12 measured_number=6.77

Proceed to the following item.
## Task Please look at this compound and report its pIC50: `CCN(CC)CCCCN(CCCCN(CC)CC)c1ccnc2cc(Cl)ccc12`
## Result 6.05
